- Assay target: human MCH-2R (Homo sapiens)
- Sequence (Q969V1 whole entry): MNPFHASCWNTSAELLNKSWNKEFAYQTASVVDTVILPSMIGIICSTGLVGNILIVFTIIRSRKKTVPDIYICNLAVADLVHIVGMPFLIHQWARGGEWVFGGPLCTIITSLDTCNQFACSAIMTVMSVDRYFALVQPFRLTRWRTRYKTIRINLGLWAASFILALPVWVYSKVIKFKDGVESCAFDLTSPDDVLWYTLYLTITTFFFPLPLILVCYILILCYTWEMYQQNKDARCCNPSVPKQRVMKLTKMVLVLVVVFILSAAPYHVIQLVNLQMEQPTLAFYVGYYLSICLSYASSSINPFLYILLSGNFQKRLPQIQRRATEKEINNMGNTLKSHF
- Assay info: Aequorin bioluminescence functional assay, MCH-2R agonist activity
Where a SMILES comes first, the peptide text is derived from it. Bridges are numbered along the chain shown (N, C = ends). [ ]: non-standard residue; d: D form. The star is where a group is joined. Pentanoyl(5-guanidino) = NC(N)=NCCCCC(=O)*; Nle = CCCC[C@H](N)C(=O)O; Ava = NCCCCC(=O)O
Readout label: EC50

[
  {
    "Molecule": "CSCC[C@@H]1NC(=O)[C@@H](NC(=O)CCCCNC(=N)N)CSSC[C@@H](C(N)=O)NC(=O)CCCCNC(=O)CCCCNC(=O)[C@H](Cc2ccc(O)cc2)NC(=O)[C@H](C(C)C)NC(=O)[C@H](CCCNC(=N)N)NC(=O)CNC(=O)[C@H](CC(C)C)NC1=O",
    "Readout label": "EC50",
    "Value observed": "> 10 µM"
  }
]

Now consider the entry below.
Qu. Which measured EC50 value corresponds to CCCC[C@@H]1NC(=O)[C@@H](NC(=O)CCCCNC(=N)N)CSSC[C@@H](C(=O)O)NC(=O)CCCCNC(=O)CCCCNC(=O)[C@H](Cc2ccc(O)cc2)NC(=O)[C@H](C)NC(=O)[C@H](CCCNC(=N)N)NC(=O)CCCCNC(=O)CCCCNC1=O [SEQ. ID. NO. 35] ({Pentanoyl(5-guanidino)}-C[Nle][Ava][Ava]RAY[Ava][Ava]C-OH; disulfide 1-10) ?
Ans. > 10 µM

----------
pEC50 reference
- Assay target: rat MCH-1R (Rattus norvegicus)
- Sequence (P97639 whole entry): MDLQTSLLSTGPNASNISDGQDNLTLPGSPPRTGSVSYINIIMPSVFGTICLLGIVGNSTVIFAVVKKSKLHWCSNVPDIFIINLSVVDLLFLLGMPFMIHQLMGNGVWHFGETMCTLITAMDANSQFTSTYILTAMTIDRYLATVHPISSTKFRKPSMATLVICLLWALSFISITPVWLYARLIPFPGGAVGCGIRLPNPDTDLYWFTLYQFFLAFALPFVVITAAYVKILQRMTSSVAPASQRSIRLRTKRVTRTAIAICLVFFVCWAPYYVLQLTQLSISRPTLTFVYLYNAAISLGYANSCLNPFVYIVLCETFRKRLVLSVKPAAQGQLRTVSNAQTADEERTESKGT
- Assay info: Aequorin bioluminescence functional assay, MCH-1R agonist activity
pEC50: −log10 of the molar value. Where a SMILES comes first, the peptide text is derived from it. Bridges are numbered along the chain shown (N, C = ends). [ ]: non-standard residue; d: D form. The star is where a group is joined. Pentanoyl(5-guanidino) = NC(N)=NCCCCC(=O)*; dNle = CCCC[C@@H](N)C(=O)O; Ava = NCCCCC(=O)O

[
  {
    "Compound": "CCCC[C@H]1NC(=O)[C@H](CC(C)C)NC(=O)[C@H](CCSC)NC(=O)[C@@H](NC(=O)CCCCNC(=N)N)CSSC[C@@H](C(N)=O)NC(=O)CCCCNC(=O)CCCCNC(=O)[C@H](Cc2ccc(O)cc2)NC(=O)[C@H](C(C)C)NC(=O)[C@H](CCCNC(=N)N)NC1=O [SEQ. ID. NO. 27] ({Pentanoyl(5-guanidino)}-CML[dNle]RVY[Ava][Ava]C-NH2; disulfide 1-10; C-terminus assumed)",
    "pEC50": "< 5.00"
  },
  {
    "Compound": "CSCC[C@@H]1NC(=O)[C@@H](NC(=O)CCCCNC(=N)N)CSSC[C@@H](C(N)=O)NC(=O)CCCCNC(=O)CCCCNC(=O)[C@H](Cc2ccc(O)cc2)NC(=O)[C@H](C(C)C)NC(=O)[C@H](CCCNC(=N)N)NC(=O)CCCCNC(=O)CCCCNC1=O [SEQ. ID. NO. 32] ({Pentanoyl(5-guanidino)}-CM[Ava][Ava]RVY[Ava][Ava]C-NH2; disulfide 1-10; C-terminus assumed)",
    "pEC50": "< 5.00"
  },
  {
    "Compound": "CSCC[C@@H]1NC(=O)[C@@H](NC(=O)[C@H](CCCNC(=N)N)NC(C)=O)CSSC[C@@H](C(N)=O)NC(=O)[C@@H]2CCCN2C(=O)[C@H](CCCNC(=N)N)NC(=O)[C@H](Cc2ccc(O)cc2)NC(=O)[C@H](C(C)C)NC(=O)[C@H](CCCNC(=N)N)NC(=O)CCCCNC(=O)CCCCNC1=O [SEQ. ID. NO. 3] (Ac-RCM[Ava][Ava]RVYRPC-NH2; disulfide 2-11; C-terminus assumed)",
    "pEC50": 6.23
  },
  {
    "Compound": "CSCC[C@@H]1NC(=O)[C@@H](NC(=O)CCCCNC(=N)N)CSSC[C@@H](C(N)=O)NC(=O)CCCNC(=O)CCCNC(=O)[C@H](Cc2ccc(O)cc2)NC(=O)[C@H](C(C)C)NC(=O)[C@H](CCCNC(=N)N)NC(=O)CNC(=O)[C@H](CC(C)C)NC1=O",
    "pEC50": "< 5.00"
  },
  {
    "Compound": "CSCC[C@@H]1NC(=O)[C@@H](NC(=O)[C@H](CCCNC(=N)N)NC(C)=O)CSSC[C@@H](C(N)=O)NC(=O)CCCCNC(=O)CCCCNC(=O)[C@H](Cc2ccc(O)cc2)NC(=O)[C@H](C(C)C)NC(=O)[C@H](CCCNC(=N)N)NC(=O)CNC(=O)[C@H](CC(C)C)NC1=O [SEQ. ID. NO. 8] (Ac-RCMLGRVY[Ava][Ava]C-NH2; disulfide 2-11; C-terminus assumed)",
    "pEC50": 6.39
  }
]

Now consider the entry below.
Qu. Which measured pEC50 value corresponds to CSCC[C@@H]1NC(=O)[C@@H](NC(=O)[C@H](CCCNC(=N)N)NC(C)=O)CSSC[C@@H](C(N)=O)NC(=O)CCCCNC(=O)CCCCNC(=O)[C@H](Cc2ccc(O)cc2)NC(=O)[C@H](C(C)C)NC(=O)[C@H](CCCNC(=N)N)NC(=O)CCCCNC(=O)CCCCNC1=O [SEQ. ID. NO. 30] (Ac-RCM[Ava][Ava]RVY[Ava][Ava]C-NH2; disulfide 2-11 (inferred); C-terminus assumed) ?
Ans. < 5.00
